systemUnderTest: CDK4 (Homo sapiens, UniProt P11802)
Sequence (P11802 whole entry, species assumed): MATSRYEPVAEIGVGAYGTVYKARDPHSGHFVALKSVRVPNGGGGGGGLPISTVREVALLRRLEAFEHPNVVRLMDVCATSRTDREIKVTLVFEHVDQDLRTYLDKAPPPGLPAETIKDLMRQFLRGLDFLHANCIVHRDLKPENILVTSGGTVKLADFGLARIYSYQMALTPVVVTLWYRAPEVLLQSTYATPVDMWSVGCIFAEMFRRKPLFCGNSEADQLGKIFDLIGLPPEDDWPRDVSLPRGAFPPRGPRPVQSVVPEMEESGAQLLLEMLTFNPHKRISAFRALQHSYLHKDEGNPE
Sequence (P24385 whole entry partner, species assumed): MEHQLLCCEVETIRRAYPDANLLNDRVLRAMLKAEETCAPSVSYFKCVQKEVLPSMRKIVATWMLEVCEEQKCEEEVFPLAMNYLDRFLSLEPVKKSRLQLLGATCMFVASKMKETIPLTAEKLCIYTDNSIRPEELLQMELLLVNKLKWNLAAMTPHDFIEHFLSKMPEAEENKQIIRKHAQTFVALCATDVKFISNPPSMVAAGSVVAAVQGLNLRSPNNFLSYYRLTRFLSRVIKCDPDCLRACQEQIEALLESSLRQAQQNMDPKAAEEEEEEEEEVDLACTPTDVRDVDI
experimentDescription: Kinase assay, CDK4 activity range (Table 2)
Format: biochemical
pIC50: −log10 of the molar value.
Here, each record is paired with measured pIC50 data.

compound="COc1ccccc1-c1cc(Nc2ccc(C(=O)NC3CCCNC3)cc2)ncn1 (centres unmarked) [(86)]" systemundertest="CDK4 (Homo sapiens, UniProt P11802)" obsvalue="6.00 to 9.00"
compound="CC(C)Oc1ccccc1-c1cc(Nc2ccc(NC(=O)[C@@H]3CCCCN3)cc2)ncn1 [(188)]" systemundertest="CDK4 (Homo sapiens, UniProt P11802)" obsvalue="6.00 to 9.00"
compound="NCCCOc1ccccc1-c1cc(Nc2ccc(NC(=O)c3ccc(N)cc3)cc2)ncn1 [(103)]" systemundertest="CDK4 (Homo sapiens, UniProt P11802)" obsvalue="3.60 to 5.00"
compound="COc1ccccc1-c1cc(Nc2cccc(S(N)(=O)=O)c2)ncn1 [(150)]" systemundertest="CDK4 (Homo sapiens, UniProt P11802)" obsvalue="3.60 to 5.00"

Q: Sample COc1ccccc1-c1cc(Nc2ccc(NC(=O)[C@@H]3Cc4ccccc4CN3)cc2)ncn1 [(65)] — what was its pIC50?
A: 3.60 to 5.00

----------
systemUnderTest: CDK2/CyclinA (Homo sapiens)
experimentDescription: Kinase assay determining CDK2/CyclinA activity
cond: read-out: CDK2 (activity range)
pIC50: −log10 of the molar value.
Measured pIC50, listed per entry.

Worked examples, 6 compounds total:
compound=COc1ccccc1-c1cc(NCCc2ccncc2)ncn1 systemundertest="CDK2/CyclinA (Homo sapiens)" valuetype=pIC50 obsvalue="3.60 to 5.00"
compound=CS(=O)(=O)Nc1cc(Nc2cc(-c3cccc(N)c3)ncn2)ccc1OCc1ccccc1 systemundertest="CDK2/CyclinA (Homo sapiens)" valuetype=pIC50 obsvalue="5.00 to 6.00"
compound=CC(C)Oc1ccccc1-c1cc(Nc2ccc(NC(=O)c3ccc(N)cc3)cc2)ncn1 systemundertest="CDK2/CyclinA (Homo sapiens)" valuetype=pIC50 obsvalue="6.00 to 9.00"
compound=COc1ccccc1-c1cc(Nc2ccc(NC(=O)c3ccc(C(C)(C)C)cc3)cc2)ncn1 systemundertest="CDK2/CyclinA (Homo sapiens)" valuetype=pIC50 obsvalue="3.60 to 5.00"
compound=COc1ccccc1-c1cc(Nc2ccc(NS(=O)(=O)c3ccc(C)cc3)cc2)ncn1 systemundertest="CDK2/CyclinA (Homo sapiens)" valuetype=pIC50 obsvalue="6.00 to 9.00"
compound="COc1ccc(-c2cc(Nc3ccc(C(=O)N[C@@H]4CCCC[C@H]4N)cc3)ncn2)cc1 (racemic)" systemundertest="CDK2/CyclinA (Homo sapiens)" valuetype=pIC50 obsvalue="5.00 to 6.00"

Q: Please report the recorded pIC50 for COc1ccccc1-c1cc(Nc2ccc(NS(=O)(=O)c3ccccc3)cc2)ncn1 .
A: 6.00 to 9.00

Q: Which pIC50 is listed for COc1ccccc1-c1cc(Nc2ccc(NC(=O)C(c3ccccc3)C(C)C)cc2)ncn1 (stereo not drawn) ?
A: 3.60 to 5.00

Q: May I ask what pIC50 has been recorded for Cc1ccc(S(=O)(=O)Nc2ccc(Nc3cc(-c4cccc(/C=C/C(=O)O)c4)ncn3)cc2)cc1 ?
A: 3.60 to 5.00

Q: What value of measured pIC50 is listed for CC(C)(C)C(=O)Nc1ccc(Nc2cc(-c3cccnc3)ncn2)cc1 ?
A: 3.60 to 5.00

Q: Endpoint output: pIC50 of COC(=O)CN(c1ccc(Nc2cc(-c3ccccc3OC)ncn2)cc1)S(=O)(=O)c1ccc(C)cc1 . Value?
A: 5.00 to 6.00

----------
systemUnderTest: CDK9/Cyclin T1 (Homo sapiens)
experimentDescription: Kinase assay using CDK9/Cyclin T1
cond: read-out: CDK9 (activity range)
pIC50: −log10 of the molar value.
valueType: pIC50

Below: 4 compounds and their reported pIC50.
compound="COc1ccc(-c2cc(Nc3ccc(NC(=O)c4ccc(N)cc4)cc3)ncn2)c(OC)c1 [(31)]" valuetype=pIC50 obsvalue="6.00 to 9.00"
compound="Cc1ccc(S(=O)(=O)Nc2ccc(Nc3cc(-c4ccc(O)cc4)ncn3)cc2)cc1 [(11)]" valuetype=pIC50 obsvalue="6.00 to 9.00"
compound="CC(C)(C)C(=O)Nc1ccc(Nc2cc(-c3ccccc3F)ncn2)cc1 [(127)]" valuetype=pIC50 obsvalue="3.60 to 5.00"
compound="COc1ccc(-c2cc(Nc3ccc(NC(=O)[C@@H]4CCCCN4)cc3)ncn2)c(OC)c1 [(187)]" valuetype=pIC50 obsvalue="6.00 to 9.00"

Q: Item under review: Cc1ccc(Nc2cc(-c3cccc(N)c3)ncn2)cc1NS(=O)(=O)c1cccc2cccnc12 [(142)] . Reported pIC50?
A: 6.00 to 9.00

Q: Sample COc1ccccc1-c1cc(Nc2ccc(C(=O)NC3CCCCC3)cc2)ncn1 [(44)] — what was its pIC50?
A: 6.00 to 9.00

Q: Param item = CC(C)(C)C(=O)Nc1ccc(Nc2cc(-c3ccccc3OCc3ccccc3)ncn2)cc1 [(85)] ; retrieve measured pIC50.
A: 6.00 to 9.00

Q: Please report the recorded pIC50 for COc1ccccc1-c1cc(Nc2ccc(NC(=O)C(c3ccccc3)N(C)C)cc2)ncn1 (stereo not shown) [(101)] .
A: 6.00 to 9.00

Q: # lookup: pIC50 of COc1ccccc1-c1cc(Nc2ccc(NS(C)(=O)=O)cc2)ncn1 [(33)]
A: 6.00 to 9.00

Q: Report pIC50 for NC1CCCCC1NC(=O)c1ccc(Nc2cc(-c3cnc4ccccc4c3)ncn2)cc1 (stereo not shown) [(212)] please.
A: 3.60 to 5.00

Q: Name the reported pIC50 value associated with the compound COc1ccc(-c2cc(Nc3ccc(NS(=O)(=O)c4ccc(C)cc4)cc3)ncn2)cc1 [(1)]
A: 3.60 to 5.00

----------
systemUnderTest: CDK2/CyclinA (Homo sapiens)
experimentDescription: Kinase assay determining CDK2/CyclinA activity
cond: read-out: CDK2 (activity range)
pIC50: −log10 of the molar value.
Measured pIC50 by item

molecule=Cc1ccc(Nc2cc(-c3cccc(C#N)c3)ncn2)cc1NS(C)(=O)=O valuetype=pIC50 obsvalue="5.00 to 6.00"
molecule=Cc1ccc(Nc2cc(-c3ccccc3)ncn2)cc1NS(C)(=O)=O valuetype=pIC50 obsvalue="6.00 to 9.00"
molecule=CCCCNS(=O)(=O)c1cccc(Nc2cc(-c3ccccc3OC)ncn2)c1 valuetype=pIC50 obsvalue="5.00 to 6.00"
molecule=COc1ccccc1-c1cc(Nc2ccc(C(=O)Nc3ccc(N4CCOCC4)cc3)cc2)ncn1 valuetype=pIC50 obsvalue="5.00 to 6.00"
molecule=COc1ccccc1-c1cc(Nc2ccc(NC(=O)[C@H]3CCCCN3)cc2)ncn1 valuetype=pIC50 obsvalue="5.00 to 6.00"
molecule=O=C(Nc1ccc(Nc2cc(-c3ccccc3OCc3ccccc3)ncn2)cc1)[C@@H]1CCCCN1 valuetype=pIC50 obsvalue="6.00 to 9.00"
molecule=CC(=O)Nc1cccc(-c2cc(Nc3ccc(C)c(NS(C)(=O)=O)c3)ncn2)c1 valuetype=pIC50 obsvalue="5.00 to 6.00"
molecule=COc1ncccc1-c1cc(Nc2ccc(C)c(NS(C)(=O)=O)c2)ncn1 valuetype=pIC50 obsvalue="5.00 to 6.00"

Q: I am curious: what pIC50 value has been reported for CC(C)(C)C(=O)Nc1ccc(Nc2cc(-c3ccccc3OCc3ccccc3)ncn2)cc1 ?
A: 5.00 to 6.00

Q: Tell me the measured pIC50 of COc1ccccc1-c1cc(Nc2ccc(NC(=O)Nc3ccc4c(c3)OCO4)cc2)ncn1 , please.
A: 3.60 to 5.00

Q: Can you share its pIC50? I mean this molecule: CC(C)(C)C(=O)Nc1ccc(Nc2cc(NCCN)ncn2)cc1
A: 3.60 to 5.00

----------
Entries and their measured EC50 follow.
Tested on: NFκB-dependent transcriptional activity
experimentDescription: NFκB-dependent transcriptional activity (NIH 3T3 75E 11/300D8 cell line)
Assay type: cell-based
cond: titration

compoundstructurestring=Nc1ccc(C(=O)Nc2ccc(Nc3cc(-c4ccccc4OCc4ccccc4)ncn3)cc2)cc1 valuetype=EC50 obsvalue="~2000 nM"

Q: Please look up its EC50: COc1ccccc1-c1cc(Nc2ccc(NC(=O)[C@@H]3CCCCN3)cc2)ncn1
A: ~1000 nM

----------
systemUnderTest: CDK9/Cyclin T1 (Homo sapiens, UniProt P50750)
Sequence (P50750 whole entry): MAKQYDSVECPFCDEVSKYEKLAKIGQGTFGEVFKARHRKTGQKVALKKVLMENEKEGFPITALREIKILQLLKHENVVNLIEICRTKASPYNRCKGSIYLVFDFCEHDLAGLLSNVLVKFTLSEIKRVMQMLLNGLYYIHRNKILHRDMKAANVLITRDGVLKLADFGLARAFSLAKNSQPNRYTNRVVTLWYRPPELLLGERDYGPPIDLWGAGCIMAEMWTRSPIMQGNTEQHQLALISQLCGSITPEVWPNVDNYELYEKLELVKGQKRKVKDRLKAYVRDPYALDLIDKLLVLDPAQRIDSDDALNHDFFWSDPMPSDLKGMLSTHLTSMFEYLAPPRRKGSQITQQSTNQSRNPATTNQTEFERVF
Sequence (O60563 whole entry partner): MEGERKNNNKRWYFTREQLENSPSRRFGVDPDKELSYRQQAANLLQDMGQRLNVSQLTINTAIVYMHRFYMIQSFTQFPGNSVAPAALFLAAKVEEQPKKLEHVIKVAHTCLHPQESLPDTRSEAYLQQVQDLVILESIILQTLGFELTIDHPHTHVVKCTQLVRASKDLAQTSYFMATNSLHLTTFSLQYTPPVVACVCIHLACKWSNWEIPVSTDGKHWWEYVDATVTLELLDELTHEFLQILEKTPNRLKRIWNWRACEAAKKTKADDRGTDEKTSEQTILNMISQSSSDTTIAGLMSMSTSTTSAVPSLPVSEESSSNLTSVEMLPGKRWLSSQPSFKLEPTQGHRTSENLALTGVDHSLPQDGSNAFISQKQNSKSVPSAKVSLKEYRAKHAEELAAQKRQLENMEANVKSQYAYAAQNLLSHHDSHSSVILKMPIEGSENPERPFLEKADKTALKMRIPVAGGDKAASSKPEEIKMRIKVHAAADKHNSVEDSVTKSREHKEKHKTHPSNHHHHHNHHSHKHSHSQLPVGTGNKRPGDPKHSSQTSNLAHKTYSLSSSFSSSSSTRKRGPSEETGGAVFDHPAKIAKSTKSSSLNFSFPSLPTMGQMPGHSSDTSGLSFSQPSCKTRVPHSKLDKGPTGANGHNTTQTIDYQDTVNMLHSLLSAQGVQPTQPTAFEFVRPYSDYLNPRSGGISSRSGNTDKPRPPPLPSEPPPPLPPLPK
experimentDescription: Kinase assay using CDK9/Cyclin T1
cond: read-out: CDK9 (activity range)
valueType: IC50

Known results for compounds:
compound=Nc1ccc(C(=O)Nc2ccc(Nc3cc(-c4ccccc4O)ncn3)cc2)cc1 obsvalue="10 to 250 µM"
compound=COCc1ccccc1-c1cc(Nc2ccc(C)c(NS(C)(=O)=O)c2)ncn1 obsvalue="1 to 10 µM"

Q: Record request: IC50 value, item COc1ccccc1-c1cc(Nc2ccc(C(=O)Nc3ccccc3)cc2)ncn1
A: 0.001 to 1 µM

Q: For the compound shown here, CC(=O)Nc1cccc(-c2cc(Nc3ccc(C(=O)NC4CCCCC4N)cc3)ncn2)c1 (stereo not shown) , give the reported IC50.
A: 1 to 10 µM
